tested on: Saccharomyces cerevisiae; assay: protein stability index of tFT-peptide fusion (C-terminal peptide) (PSI (0-1 scale)); higher = more stable (slower turnover); conditions: genetic background: cdc53-1; temperature: 37 C;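 further: PSI is a weighted mean of sequencing reads over stability bins, variants kept only with over 10 reads, mCherry proximal and sfGFP distal, peptide attached via GGGS linker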
Measurement name: protein stability index

# Residue sequence, Measurement name, Value
records = [
    ("LLGGFAAFWRIL", "protein stability index", 0.713),
    ("IPLGLTLVQCLY", "protein stability index", 0.61),
    ("RAQQRVKERYIE", "protein stability index", 0.729),
    ("LLLLASLFFRLA", "protein stability index", 0.595),
    ("PILRGRPTPAIL", "protein stability index", 0.731),
    ("VYFASCVVLLMV", "protein stability index", 0.188),
    ("VRRGAVWCCLCG", "protein stability index", 0.73),
    ("FCCLVLDLEVSG", "protein stability index", 0.548),
    ("VLYCRSCFLRVS", "protein stability index", 0.584),
    ("VCFWCLYVMFSL", "protein stability index", 0.494),
    ("GGVSPRSSMDLL", "protein stability index", 0.764),
    ("ELTYVYRTALIA", "protein stability index", 0.157),
    ("GGGEGVVWVRLG", "protein stability index", 0.72),
    ("RMCEILGIRHLI", "protein stability index", 0.742),
    ("LQYSKALAVICG", "protein stability index", 0.264),
    ("FFCSILLGIILL", "protein stability index", 0.401),
    ("PGVWVVILRWWV", "protein stability index", 0.179),
    ("WYAGIVFTRVWM", "protein stability index", 0.611),
    ("APRPSYSLLALL", "protein stability index", 0.858),
    ("FRYLRPAFLLLH", "protein stability index", 0.255),
    ("VVRVSFSFCLSC", "protein stability index", 0.498),
    ("FVVVCWFWGGGF", "protein stability index", 0.406),
    ("LYLEAYFCIFHF", "protein stability index", 0.449),
    ("VFFPCRLLPLLF", "protein stability index", 0.585),
    ("ISATYSYIPVVG", "protein stability index", 0.496),
    ("FLFLFLFPFSLI", "protein stability index", 0.571),
    ("WLISLLVQPVFL", "protein stability index", 0.317),
    ("VVPYPFLTLLNI", "protein stability index", 0.407),
    ("FLFFMGVGVVLY", "protein stability index", 0.382),
    ("CYCSIGCLIIFS", "protein stability index", 0.374),
    ("VFGVWVVVGCVG", "protein stability index", 0.101),
    ("PYLSAPLVATLS", "protein stability index", 0.424),
    ("FLVFPLLIQFFL", "protein stability index", 0.303),
    ("FRHKLSLGLVIV", "protein stability index", 0.555),
    ("RGDCFLVLCVWR", "protein stability index", 0.535),
    ("KKTKKTMIIKTT", "protein stability index", 0.706),
    ("FIFCLSCGVWGG", "protein stability index", 0.583),
    ("HYTSFAVPPLVY", "protein stability index", 0.476),
    ("CSAVYNLHLLYS", "protein stability index", 0.745),
    ("VGYSLFTFLFCA", "protein stability index", 0.631),
    ("FVICGMLVHWMV", "protein stability index", 0.536),
]
